Would you kindly list Ratio for each of these compounds?
- Tested on: mu (Rattus norvegicus) & delta (Mus musculus) opioid receptors
- Protocol description: Ratio of IC50 against mu opioid receptor to that of delta opioid receptor
Square brackets hold non-standard residues; d marks the D form. Peptide text beside a SMILES is read from it. * marks the point of attachment. ξ: configuration not given here. Tyr(Nα,Nα-allyl2) = C=CCN(CC=C)[C@@H](Cc1ccc(O)cc1)C(=O)*; X1 = O=C(C(Cc1ccc(O)cc1)N(Cc1ccccc1)Cc1ccccc1)*; Phe(4-NH2) = Nc1ccc(C[C@H](N)C(=O)O)cc1; Aib = CC(C)(N)C(=O)O; BrAc = O=C(CBr)*; ξA = CC(N)C(=O)O

Prompt: # Ratio lookup, item C=CCN(CC=C)[C@@H](Cc1ccc(O)cc1)C(=O)NC(C)(C)C(=O)NC(C)(C)C(=O)N[C@@H](Cc1ccccc1)C(=O)N[C@@H](CC(C)C)C(=O)O (HELM PEPTIDE1{[C=CCN(CC=C)[C@@H](Cc1ccc(O)cc1)C(=O)[*:2]].[Aib].[Aib].F.L}$$$$V2.0)
Completion: 27

Prompt: What measured Ratio goes with CC(C)C[C@H](NC(=O)[C@H](Cc1ccc(NC(=O)CBr)cc1)NC(=O)CNC(=O)CNC(=O)C(Cc1ccc(O)cc1)N(Cc1ccccc1)Cc1ccccc1)C(=O)O (stereo partly drawn) (X1-GG[Phe(4-NH2)](BrAc)L-OH) ?
Completion: 61

Prompt: I'd like to know its Ratio. The compound in question is CC(C)C[C@H](NC(=O)[C@H](Cc1ccc(N=C=S)cc1)NC(=O)CNC(=O)CNC(=O)[C@H](Cc1ccc(O)cc1)N(Cc1ccccc1)Cc1ccccc1)C(=O)O
Completion: 54

Prompt: I would be grateful if you could share the reported Ratio for CC(C)C[C@H](NC(=O)[C@H](Cc1ccccc1)NC(=O)CNC(=O)CNC(=O)[C@H](Cc1ccc(O)cc1)N(Cc1ccccc1)Cc1ccccc1)C(=O)O (HELM PEPTIDE1{[O=C([C@H](Cc1ccc(O)cc1)N(Cc1ccccc1)Cc1ccccc1)[*:2]].G.G.F.L}$$$$V2.0) .
Completion: 20

Prompt: Consider the compound shown here: C=CCN(CC=C)[C@@H](Cc1ccc(O)cc1)C(=O)NC(C)(C)C(=O)NC(C)C(=O)N[C@@H](Cc1ccc(N)cc1)C(=O)N[C@@H](CC(C)C)C(=O)O (stereo partly drawn) ({Tyr(Nα,Nα-allyl2)}-[Aib][ξA][Phe(4-NH2)]L-OH) What is its recorded Ratio?
Completion: 63

Prompt: So what does the record say about Ratio for CC(C)C[C@H](NC(=O)[C@H](Cc1ccc(NCCl)cc1)NC(=O)CNC(=O)CNC(=O)[C@H](Cc1ccc(O)cc1)N(Cc1ccccc1)Cc1ccccc1)C(=O)O ?
Completion: 131
